# experimentalSystem: USP28 (UniProt Q96RU2)
# Sequence (whole entry): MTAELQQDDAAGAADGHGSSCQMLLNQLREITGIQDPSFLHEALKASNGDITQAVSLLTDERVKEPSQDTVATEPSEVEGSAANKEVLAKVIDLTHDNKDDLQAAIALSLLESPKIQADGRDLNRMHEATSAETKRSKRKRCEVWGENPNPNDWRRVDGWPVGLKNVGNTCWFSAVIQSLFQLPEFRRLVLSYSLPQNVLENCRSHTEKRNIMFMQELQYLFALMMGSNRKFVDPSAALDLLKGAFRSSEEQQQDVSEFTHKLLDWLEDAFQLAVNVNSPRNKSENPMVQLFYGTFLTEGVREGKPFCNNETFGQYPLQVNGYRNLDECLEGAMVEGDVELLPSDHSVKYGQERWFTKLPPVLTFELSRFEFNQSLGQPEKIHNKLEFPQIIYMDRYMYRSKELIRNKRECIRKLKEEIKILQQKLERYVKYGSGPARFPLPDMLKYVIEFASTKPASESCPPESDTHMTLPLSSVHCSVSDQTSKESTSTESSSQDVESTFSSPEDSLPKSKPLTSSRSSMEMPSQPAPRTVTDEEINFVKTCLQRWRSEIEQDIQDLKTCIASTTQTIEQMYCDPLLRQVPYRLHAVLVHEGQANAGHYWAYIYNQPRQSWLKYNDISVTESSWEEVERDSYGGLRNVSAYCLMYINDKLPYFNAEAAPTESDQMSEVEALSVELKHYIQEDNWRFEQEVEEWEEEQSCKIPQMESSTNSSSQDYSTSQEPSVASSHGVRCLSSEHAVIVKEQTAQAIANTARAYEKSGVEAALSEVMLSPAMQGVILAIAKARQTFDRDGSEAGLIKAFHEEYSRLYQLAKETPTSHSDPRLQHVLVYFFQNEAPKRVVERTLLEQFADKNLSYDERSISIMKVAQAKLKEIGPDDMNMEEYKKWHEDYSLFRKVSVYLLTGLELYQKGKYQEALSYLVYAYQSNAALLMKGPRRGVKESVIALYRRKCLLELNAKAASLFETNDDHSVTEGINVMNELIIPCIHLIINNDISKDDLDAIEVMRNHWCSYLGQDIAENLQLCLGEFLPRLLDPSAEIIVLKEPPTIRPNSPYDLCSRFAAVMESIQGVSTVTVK
# assayName: log2 ratio of Biotin-Ahx-Ub-VS probe labelling (fragment/DMSO); higher = less target engagement (more negative = stronger competition), active = hit call of the paper (q ≤ 0.05, log2 ratio ≤ -1)
# experimentalConditions: compound concentration: 200 uM; treatment time: 3 h
I would appreciate it if you answered using one of these outcomes: yes (1) (active), no (0) (inactive)

Below are worked cases with known answers.
In [3]: df
Out[3]:
                      substancesmiles  labelclass
0         O=C(CCl)NCCc1ccc2c(c1)OCCO2      no (0)
1  O=C(CCl)N1CCC(c2noc3cc(F)ccc23)CC1      no (0)
2             O=C(CCl)N1CCCCC12CCOCC2      no (0)

Hello, I am checking results. What call was entered for `N#Cc1ccc(Cl)cc1NC(=O)CCl` ?
yes (1)

Outcome logged for `NS(=O)(=O)c1ccc(Cl)c(NC(=O)CCl)c1` in this assay:
yes (1)

So what was the verdict on `O=C(CCl)NCc1ccc(Cl)cc1` in this test?
no (0)

====

# experimentalSystem: UniProt Q9UGI0
# Sequence (Q9UGI0 whole entry, the tested form may be a part): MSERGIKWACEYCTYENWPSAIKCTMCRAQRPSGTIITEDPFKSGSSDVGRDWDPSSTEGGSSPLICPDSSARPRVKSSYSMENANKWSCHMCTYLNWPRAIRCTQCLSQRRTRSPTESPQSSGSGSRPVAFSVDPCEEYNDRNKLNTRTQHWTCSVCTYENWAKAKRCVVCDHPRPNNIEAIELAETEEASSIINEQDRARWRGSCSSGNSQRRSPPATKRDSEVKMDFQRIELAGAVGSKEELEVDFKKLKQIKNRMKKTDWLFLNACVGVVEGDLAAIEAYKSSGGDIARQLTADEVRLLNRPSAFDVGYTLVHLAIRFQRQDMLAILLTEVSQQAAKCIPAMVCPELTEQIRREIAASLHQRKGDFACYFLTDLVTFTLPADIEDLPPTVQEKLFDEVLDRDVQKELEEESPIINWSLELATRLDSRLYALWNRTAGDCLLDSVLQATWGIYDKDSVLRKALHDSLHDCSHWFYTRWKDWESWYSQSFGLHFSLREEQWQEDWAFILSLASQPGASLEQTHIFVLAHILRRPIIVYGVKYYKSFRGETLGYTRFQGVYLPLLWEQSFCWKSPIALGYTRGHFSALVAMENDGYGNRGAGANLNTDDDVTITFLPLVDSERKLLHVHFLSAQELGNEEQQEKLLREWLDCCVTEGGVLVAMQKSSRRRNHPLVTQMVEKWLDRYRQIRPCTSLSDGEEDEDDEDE
# assayName: log2 ratio of Biotin-Ahx-Ub-VS probe labelling (fragment/DMSO); higher = less target engagement (more negative = stronger competition), active = hit call of the paper (q ≤ 0.05, log2 ratio ≤ -1)
# experimentalConditions: compound concentration: 200 uM; treatment time: 3 h
Short version: log2 ratio of Biotin-Ahx-Ub-VS probe labelling at least -0.8 is yes, less is no.

Sample answers from the record:
>>> df
                         compound  labelclass
0  Cc1cc(NC(=O)CCl)n(-c2ccccc2)n1         yes
1   O=C(CCl)Nc1cc(Cl)ccc1-n1cncn1          no
2          O=C(CCl)NCc1ccc(Cl)cc1         yes
3   Cc1nc(CN2CCN(C(=O)CCl)CC2)cs1         yes
4         O=C(CCl)N1CCCCC12CCOCC2         yes

Kindly determine if log2 ratio of Biotin-Ahx-Ub-VS probe labelling recorded for `O=C(CCl)Nc1ccc(Cl)c(F)c1` is above or exactly -0.8.
no

====

# experimentalSystem: USP25 (UniProt Q9UHP3)
# Sequence (Q9UHP3 whole entry, the tested form may be a part): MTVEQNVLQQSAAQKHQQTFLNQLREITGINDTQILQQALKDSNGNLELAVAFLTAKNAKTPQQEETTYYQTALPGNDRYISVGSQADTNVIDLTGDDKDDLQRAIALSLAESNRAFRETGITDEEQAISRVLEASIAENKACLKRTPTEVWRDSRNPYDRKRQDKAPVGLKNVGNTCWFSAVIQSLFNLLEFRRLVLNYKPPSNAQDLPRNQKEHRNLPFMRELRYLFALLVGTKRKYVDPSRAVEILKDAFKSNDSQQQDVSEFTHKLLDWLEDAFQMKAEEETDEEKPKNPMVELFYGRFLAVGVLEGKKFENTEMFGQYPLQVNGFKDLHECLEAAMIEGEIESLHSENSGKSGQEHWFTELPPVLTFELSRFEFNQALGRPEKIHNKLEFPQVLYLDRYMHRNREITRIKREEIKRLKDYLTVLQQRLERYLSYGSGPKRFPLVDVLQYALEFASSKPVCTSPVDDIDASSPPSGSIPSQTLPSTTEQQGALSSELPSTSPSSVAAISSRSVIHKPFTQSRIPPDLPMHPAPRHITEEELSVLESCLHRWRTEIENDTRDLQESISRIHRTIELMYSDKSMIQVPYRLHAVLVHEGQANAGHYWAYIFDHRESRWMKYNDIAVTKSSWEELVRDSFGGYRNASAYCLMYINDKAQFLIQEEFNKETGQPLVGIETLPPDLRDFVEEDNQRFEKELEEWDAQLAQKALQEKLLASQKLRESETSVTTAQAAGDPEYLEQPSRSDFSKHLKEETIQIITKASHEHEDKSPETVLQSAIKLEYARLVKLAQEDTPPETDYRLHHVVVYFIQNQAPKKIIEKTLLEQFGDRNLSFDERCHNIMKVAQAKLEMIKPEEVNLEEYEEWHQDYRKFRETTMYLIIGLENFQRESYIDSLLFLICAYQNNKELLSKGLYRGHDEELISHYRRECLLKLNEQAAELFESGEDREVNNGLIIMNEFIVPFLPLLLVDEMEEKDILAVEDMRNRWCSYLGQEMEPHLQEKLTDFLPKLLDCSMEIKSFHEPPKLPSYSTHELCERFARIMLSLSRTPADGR
# assayName: log2 ratio of Biotin-Ahx-Ub-VS probe labelling (fragment/DMSO); higher = less target engagement (more negative = stronger competition), active = hit call of the paper (q ≤ 0.05, log2 ratio ≤ -1)
# experimentalConditions: compound concentration: 200 uM; treatment time: 3 h
Classes (log2 ratio of Biotin-Ahx-Ub-VS probe labelling): lower bin: < -0.6; middle bin: ≥ -0.6 and < -0.2; upper bin: ≥ -0.2

Check out these entries, answers already filled in.
>>> print(df.to_string())
                                   compound  labelclass
0                     Cc1cccc(NC(=O)CCl)c1C   lower bin
1              O=C(CCl)NCc1ccc(N2CCOCC2)nc1  middle bin
2               O=C(CCl)NCCc1ccc2c(c1)OCCO2   lower bin
3  NC(=O)C(Cc1ccccc1)NC(=O)CCl (centres undefined)  middle bin
4                Cc1ccc2nnc(CNC(=O)CCl)n2c1   upper bin
5                 O=C(CCl)NCc1ccc2c(c1)OCO2   upper bin

Would you mind sorting `O=C(CCl)N1CC2(CCOCC2)C1` into the appropriate category?
middle bin

====

log2 ratio of Biotin-Ahx-Ub-VS probe labelling overview
# experimentalSystem: COPS5 (UniProt Q92905)
# Sequence (Q92905 whole entry, looked up, the tested form may be a part): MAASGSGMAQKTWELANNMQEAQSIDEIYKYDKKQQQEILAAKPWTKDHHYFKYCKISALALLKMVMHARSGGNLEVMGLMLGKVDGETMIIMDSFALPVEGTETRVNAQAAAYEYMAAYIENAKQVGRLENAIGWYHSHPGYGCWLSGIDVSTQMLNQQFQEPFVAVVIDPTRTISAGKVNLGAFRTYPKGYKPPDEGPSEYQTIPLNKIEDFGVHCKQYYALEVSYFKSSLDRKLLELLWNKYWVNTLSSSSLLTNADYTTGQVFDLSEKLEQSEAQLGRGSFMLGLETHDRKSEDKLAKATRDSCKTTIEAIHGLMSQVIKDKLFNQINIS
# assayName: log2 ratio of Biotin-Ahx-Ub-VS probe labelling (fragment/DMSO); higher = less target engagement (more negative = stronger competition), active = hit call of the paper (q ≤ 0.05, log2 ratio ≤ -1)
# experimentalConditions: compound concentration: 200 uM; treatment time: 3 h

Below, 3 compounds whose answers are already recorded.
                                   compound             result
0  Cc1cccc(C(CNC(=O)CCl)N2CCOCC2)c1.Cl (stereo unspecified)  0.0369 (inactive)
1  CC(NC(=O)CCl)c1cc2n(n1)CCCC2.Cl (stereo unspecified)  -0.394 (inactive)
2             CN(C)C(=O)c1ccc(NC(=O)CCl)cc1   0.125 (inactive)

The reported log2 ratio of Biotin-Ahx-Ub-VS probe labelling value, COPS5 (UniProt Q92905), for `O=C(CCl)N1CCN(c2nc3ccccc3o2)CC1` reads -0.251 (inactive)

Param item: O=C(CCl)N1CCOC(c2cccc(F)c2)C1 (stereo unspecified) ; param system: COPS5 (UniProt Q92905); output log2 ratio of Biotin-Ahx-Ub-VS probe labelling: -0.0425 (inactive)

====

# experimentalSystem: USP10 (UniProt Q14694)
# Sequence (Q14694 whole entry, the tested form may be a part): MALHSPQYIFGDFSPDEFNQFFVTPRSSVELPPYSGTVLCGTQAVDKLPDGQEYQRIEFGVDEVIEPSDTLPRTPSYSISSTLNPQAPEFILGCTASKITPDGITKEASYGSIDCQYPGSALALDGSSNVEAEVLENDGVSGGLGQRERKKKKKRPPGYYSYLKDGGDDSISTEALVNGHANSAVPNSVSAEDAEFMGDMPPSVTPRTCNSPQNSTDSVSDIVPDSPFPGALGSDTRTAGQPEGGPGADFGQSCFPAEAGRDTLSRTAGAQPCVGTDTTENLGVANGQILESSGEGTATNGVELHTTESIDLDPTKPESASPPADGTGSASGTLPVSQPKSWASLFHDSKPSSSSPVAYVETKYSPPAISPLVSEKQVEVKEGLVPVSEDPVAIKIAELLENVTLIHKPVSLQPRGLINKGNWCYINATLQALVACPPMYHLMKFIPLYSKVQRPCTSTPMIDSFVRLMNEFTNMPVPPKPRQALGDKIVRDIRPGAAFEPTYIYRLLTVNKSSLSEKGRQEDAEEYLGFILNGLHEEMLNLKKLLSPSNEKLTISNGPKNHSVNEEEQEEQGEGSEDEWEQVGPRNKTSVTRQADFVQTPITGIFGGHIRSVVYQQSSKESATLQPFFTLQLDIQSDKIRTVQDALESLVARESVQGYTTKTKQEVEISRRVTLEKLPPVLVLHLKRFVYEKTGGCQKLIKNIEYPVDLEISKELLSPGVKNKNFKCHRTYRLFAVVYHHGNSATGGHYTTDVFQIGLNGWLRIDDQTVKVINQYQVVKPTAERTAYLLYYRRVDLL
# assayName: log2 ratio of Biotin-Ahx-Ub-VS probe labelling (fragment/DMSO); higher = less target engagement (more negative = stronger competition), active = hit call of the paper (q ≤ 0.05, log2 ratio ≤ -1)
# experimentalConditions: compound concentration: 200 uM; treatment time: 3 h
quantityKind: log2 ratio of Biotin-Ahx-Ub-VS probe labelling
Kindly provide the number alone.

Previously resolved entries follow.
In [3]: df
Out[3]:
                                   compound  numericvalue
0                       CCCn1nccc1NC(=O)CCl       -0.0888
1                    O=C(CCl)NCC(=O)N1CCCC1       -0.0856
2               Cl.O=C(CCl)NCCN1CCc2ccccc21        -0.344
3  Cc1ccc(N2CCC(NC(=O)CCl)C2=O)cc1 (stereo not drawn)        -0.174
4           O=C(CCl)NCc1ccc(N2CCOCC2)c(F)c1        -0.131
5               Cc1ncc2c(n1)CCN(C(=O)CCl)C2        -0.242

Measured log2 ratio of Biotin-Ahx-Ub-VS probe labelling for this entry `O=C(CCl)N1CCc2sccc2C1` on USP10 (UniProt Q14694): -0.16

// log2 ratio of Biotin-Ahx-Ub-VS probe labelling (USP10 (UniProt Q14694)) for `CN(C)S(=O)(=O)c1ccccc1CNC(=O)CCl` = -0.156

====

log2 ratio of Biotin-Ahx-Ub-VS probe labelling overview
# experimentalSystem: USP34 (UniProt Q70CQ2)
# assayName: log2 ratio of Biotin-Ahx-Ub-VS probe labelling (fragment/DMSO); higher = less target engagement (more negative = stronger competition), active = hit call of the paper (q ≤ 0.05, log2 ratio ≤ -1)
# experimentalConditions: compound concentration: 200 uM; treatment time: 3 h
A bare number is all that is needed in reply.

                    molecule  numericvalue
0  Cc1ccc(CNC(=O)CCl)nc1C.Cl        -0.103

// field: log2 ratio of Biotin-Ahx-Ub-VS probe labelling; key: `Cc1noc(N2CCN(C(=O)CCl)CC2)n1.Cl` ; value = 0.028

O=C(CCl)N1CCOCC1C1CC1 (stereo not given) yielded log2 ratio of Biotin-Ahx-Ub-VS probe labelling of 0.0844

`CC(=O)Nc1ccc(NC(=O)CCl)cc1` yielded log2 ratio of Biotin-Ahx-Ub-VS probe labelling of -0.128

The reported value for `O=C(CCl)N1CCc2sccc2C1` in terms of log2 ratio of Biotin-Ahx-Ub-VS probe labelling is -0.165
